What follows is a collection of IC50 values obtained with Granzyme B (human lymphocytes) (Homo sapiens, UniProt P10144).
Sequence (P10144 21-247): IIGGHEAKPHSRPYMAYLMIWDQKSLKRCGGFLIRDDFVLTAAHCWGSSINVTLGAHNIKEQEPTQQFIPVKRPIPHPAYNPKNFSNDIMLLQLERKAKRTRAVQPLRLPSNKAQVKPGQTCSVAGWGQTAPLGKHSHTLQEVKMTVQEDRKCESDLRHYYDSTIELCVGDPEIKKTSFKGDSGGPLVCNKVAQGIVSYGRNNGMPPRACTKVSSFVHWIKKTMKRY

CC[C@H](C)[C@@H](C(=O)N[C@H]1CCc2cccc3c2N(C1=O)[C@H](C(=O)NCc1c[nH]nn1)C3)N(C)C(=O)CC(=O)OC (single isomer, unassigned) [Compound C194] :: 301 to 1000 nM
CC[C@H](C)[C@@H](C(=O)N[C@H]1CCc2cccc3c2N(C1=O)[C@H](C(=O)NCc1c[nH]nn1)C3)N(C)C(=O)CC(N)=O (single isomer, unassigned) [Compound C191] :: 301 to 1000 nM

Now for the compound whose IC50 we want.
response.value for CC[C@H](C)[C@@H](C(=O)N[C@H]1CCc2cccc3c2N(C1=O)[C@H](C(=O)NCc1c[nH]nn1)C3)N(C)C(=O)Cc1csc2ccccc12 (single isomer, unassigned) [Compound C152] (field: IC50) = 301 to 1000 nM
